- test target: T1, O16
- T1 chain: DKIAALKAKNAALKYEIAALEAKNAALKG
- test name: two-hybrid library CCNG1;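 also: natural log of median RNA to DNA barcode read ratio; higher means stronger binding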
assay endpoint: interaction score
Answers are plain numbers.

> print(dat)
                                binder     assay.endpoint  reading
1  DEIAALEAKIAALKYKNAALKAKNAALKG [O12]  interaction score    -2.57
2  DKNAALKAKIAALKYKNAALKAEIAALEG [O13]  interaction score    -2.61
3  DKNAALKAENAALEYKIAALKAKIAALKG [O10]  interaction score    -1.79

Query string: Fill blank: measured interaction score of the binder DENAALEAEIAALEYENAALEAKIAALKG [O14] is ____.
Result string: 0.545
